Test system: C. elegans
Experiment: microbe, parasite or virus in culture
Conditions: Caenorhabditis elegans, 0 h, read-out: Percentage of motility inhibition 0 h, Table S2, C. elegans SS assay, 110 μM, 0 h, averages of 4 data points

molecule	inhibition at 110 µM / %
NC[C@H]1O[C@H](O[C@H]2[C@H](O)[C@@H](O[C@H]3O[C@H](CO)[C@@H](O)[C@H](N)[C@H]3O)[C@H](N)C[C@@H]2N)[C@H](N)C[C@@H]1O	9
C[C@@H]1O[C@@H](OC[C@H]2O[C@@H](Oc3c(-c4ccc(O)cc4)oc4cc(O)cc(O)c4c3=O)[C@H](O[C@@H]3O[C@H](CO)[C@H](O)[C@H](O)[C@H]3O)[C@@H](O)[C@@H]2O)[C@H](O)[C@H](O)[C@H]1O [Camelliaside A]	9
CC(=O)c1ccc[nH]1	26
O=c1cc(-c2ccc(O)cc2)oc2cc(O)cc(O)c12	12
Cc1nc(C(F)(F)F)c(C(=O)Nc2c(Br)cc(OC(F)(F)F)cc2Br)s1 [Thifluzamide]	69
C=C(C)[C@H](CC=C(C)C)Cc1c(O)cc(OC)c2c1O[C@H](c1ccc(O)cc1O)CC2=O	0
O=C1Cc2ccccc2N1	14
C[C@@H]1C[C@@H]([C@H](O)CC2CC(=O)NC(=O)C2)C(=O)[C@@H](C)C1 [Cycloheximide]	17
C=C(C)[C@@H]1CC[C@]2(C(=O)O)CC[C@]3(C)[C@H](CC[C@@H]4[C@@]5(C)CC[C@H](O)C(C)(C)[C@@H]5CC[C@]43C)[C@@H]12	27
C=C[C@@]1(C)Cc2occ(C)c2[C@@H]2OC(=O)C(=C)[C@@H]21	13
O=c1ccc2ccc(O)c(O)c2o1	0
Cc1cc(-n2c(=O)[nH]c(=O)n(C)c2=O)ccc1Oc1ccc(SC(F)(F)F)cc1	31
CC[C@@H](C(=O)[C@@H](C)[C@@H](O)[C@H](C)CCc1ccc(C)c(O)c1C(=O)O)[C@H]1O[C@](CC)([C@H]2CC[C@](O)(CC)[C@H](C)O2)C[C@@H]1C	23
CC[C@@H]1/C=C(\C)C[C@H](C)C[C@H](OC)[C@H]2O[C@@](O)(C(=O)C(=O)N3CCCC[C@H]3C(=O)O[C@H](/C(C)=C/[C@@H]3CC[C@@H](O)[C@H](OC)C3)[C@H](C)[C@@H](O)CC1=O)[C@H](C)C[C@@H]2OC	6

----------
Tested on: C. elegans
Assay: microbe, parasite or virus in culture
Details: Caenorhabditis elegans, 0 h, read-out: Percentage of motility inhibition 0 h, Table S2, C. elegans SS assay, 110 μM, 0 h, averages of 4 data points
quantity_measured: inhibition at 110 µM

molecule	reported_result
COc1cc(NS(=O)(=O)c2ccc(N)cc2)ncn1	6%
CCN1C[C@]2(COC)CC[C@H](OC)[C@]34C1[C@H]([C@H](OC)[C@H]23)[C@@]1(OC(C)=O)C[C@H](OC)[C@@]2(O)C[C@@H]4[C@@H]1[C@H]2OC(=O)c1ccc(OC)cc1	0%
O=C1CN(/N=C/C=C/c2ccc([N+](=O)[O-])o2)C(=O)N1	6%
CN(C)[C@@H]1C(O)=C(C(N)=O)C(=O)[C@@]2(O)C(O)=C3C(=O)c4c(O)cccc4[C@@](C)(O)[C@H]3[C@H](O)[C@@H]12	20%
CO[C@H]1C(=O)[C@]2(C)[C@@H](OC)C[C@H]3OC[C@@]3(OC(C)=O)[C@H]2[C@H](OC(=O)c2ccccc2)[C@]2(O)C[C@H](OC(=O)[C@H](O)[C@@H](NC(=O)OC(C)(C)C)c3ccccc3)C(C)=C1C2(C)C	3%
CC(C)=CCC[C@](C)(O[C@@H]1O[C@H](CO)[C@@H](O)[C@H](O)[C@H]1O)[C@H]1CC[C@]2(C)[C@@H]1[C@H](O)C[C@@H]1[C@@]3(C)CC[C@H](O[C@@H]4O[C@H](CO)[C@@H](O)[C@H](O)[C@H]4O)C(C)(C)[C@@H]3CC[C@]12C [Ginsenoside F2]	0%
CC[C@@H]1[C@H]2CCCCN3[C@H]2[C@H](C[C@H]3[C@@H]2C[C@H](C)C(=O)O2)[C@@H]2[C@H]1OC(=O)[C@H]2C	6%
O=c1c(O)cc([C@H]2Oc3cc(O)cc(O)c3C[C@H]2O)cc2c([C@H]3Oc4cc(O)cc(O)c4C[C@H]3O)cc(O)c(O)c12	11%
CC1(C)CC[C@]2(C(=O)O)CC[C@]3(C)C(=CC[C@@H]4[C@@]5(C)C[C@@H](O)[C@H](O)[C@@](C)(CO)[C@@H]5[C@H](O)C[C@]43C)[C@@H]2C1	26%
C[C@H]1[C@H](OC(=O)CCC(=O)O)O[C@@H]2O[C@@]3(C)CC[C@H]4[C@H](C)CC[C@@H]1[C@@]24OO3 [Artesunate]	12%
Cc1ncc([N+](=O)[O-])n1CCO	34%
C=C1CCC[C@]2(C)C[C@@H]3OC(=O)C(C)=C3C[C@@H]12 [Atractylenolide II]	10%
CS(=O)(=O)c1ccc([C@@H](O)[C@@H](CO)NC(=O)C(Cl)Cl)cc1	24%
COc1nccnc1NS(=O)(=O)c1ccc(N)cc1	2%

----------
Tested on: C. elegans
Test: microbe, parasite or virus in culture
Conditions: Caenorhabditis elegans, 24 h, read-out: Percentage of motility inhibition 24 h, Table S2, C. elegans SS assay, 110 μM, 24 h, averages of 4 data points
quantity_measured: inhibition at 110 µM (%)

molecule	measured_on	reported_result
O=C(Nc1ccc(Cl)cc1)Nc1ccc(Cl)c(Cl)c1	C. elegans	20
O=C1CN(/N=C/c2ccc([N+](=O)[O-])o2)C(=O)N1	C. elegans	4
CCS(=O)(=O)CCn1c([N+](=O)[O-])cnc1C	C. elegans	8
C[C@@]1(CO)C[C@@H](O)C[C@@]2(C)[C@@H]3CC[C@](C)([C@@H](O)CO)C=C3CC[C@H]12	C. elegans	15
O=C(O)[C@@H]1[C@H]2C[C@H]3c4[nH]c5ccccc5c4CCN3C[C@@H]2CC[C@@H]1O	C. elegans	51
OC[C@H]1NC[C@H](O)[C@@H](O)[C@@H]1O	C. elegans	1
CC[C@H]1OC(=O)C[C@@H](O)[C@H](C)[C@@H](O[C@@H]2O[C@H](C)[C@@H](O[C@H]3C[C@@](C)(O)[C@@H](O)[C@H](C)O3)[C@H](N(C)C)[C@H]2O)[C@@H](CC=O)C[C@@H](C)C(=O)/C=C/C(C)=C/[C@@H]1CO[C@@H]1O[C@H](C)[C@@H](O)[C@@H](OC)[C@H]1OC	C. elegans	0
CC(C)c1ccc2c(c1)CC[C@H]1[C@](C)(C(=O)O)CCC[C@]21C [Dehydroabietic acid]	C. elegans	17
Nc1nc(=O)n([C@@H]2CS[C@H](CO)O2)cc1F	C. elegans	32
COC(=O)[C@@]12OC[C@]34[C@H]([C@@H](O)[C@@H]1O)[C@@]1(C)CC(=O)C(O)=C(C)[C@@H]1C[C@H]3OC(=O)[C@H](OC(=O)/C=C(\C)C(C)C)[C@@H]24 [Bruceantin]	C. elegans	69

----------
System: C. elegans
Test: microbe, parasite or virus in culture
Settings: Caenorhabditis elegans, 24 h, read-out: Percentage of motility inhibition 24 h, Table S2, C. elegans SS assay, 110 μM, 24 h, averages of 4 data points
Where inhibition at 110 µM equals or exceeds 10%, the correct label is fulfilled; where it does not, the label is not fulfilled.

compound	assigned_label
CC(C)=CCC[C@](C)(O[C@@H]1O[C@H](CO[C@@H]2OC[C@@H](O)[C@H](O)[C@H]2O)[C@@H](O)[C@H](O)[C@H]1O)[C@H]1CC[C@]2(C)[C@@H]1[C@H](O)C[C@@H]1[C@@]3(C)CC[C@H](O[C@@H]4O[C@H](CO)[C@@H](O)[C@H](O)[C@H]4O[C@@H]4O[C@H](CO)[C@@H](O)[C@H](O)[C@H]4O)C(C)(C)[C@@H]3CC[C@]12C [Ginsenoside Rb3]	not fulfilled
C=CCOC(Cn1ccnc1)c1ccc(Cl)cc1Cl (centres unmarked)	fulfilled
Cc1ccc(C(C)C)c(O)c1	fulfilled
O=C1c2c(O)cc(O)cc2O[C@H](c2cc(O)c(O)c(O)c2)[C@H]1O [Dihydromyricetin]	fulfilled
CCc1cc(C(N)=S)ccn1 [Ethionamide]	fulfilled
C=C1C(=O)O[C@H]2[C@H]1CC/C(C)=C/CC[C@@]1(C)O[C@@H]21 [Parthenolide]	fulfilled
COc1ccc(-c2coc3cc(O)ccc3c2=O)cc1	fulfilled
Cc1oc(=O)oc1COC(=O)C1=C([C@H]2CCCO2)S[C@@H]2[C@@H]([C@@H](C)O)C(=O)N12 [Faropenem daloxate]	fulfilled
CC1=C2C(=O)O[C@@H](c3ccoc3)[C@]2(C)CCC1	not fulfilled
Nc1ccc(S(=O)(=O)Nc2ccnn2-c2ccccc2)cc1	not fulfilled
